target: AMP-activated protein kinase (AMPK) alpha-1/beta-1/gamma-1 (Homo sapiens, UniProt P54619+Q13131+Q9Y478); assay: In Vitro pAMPK1 Kinase Activation Assay: Compound effect on AMPK enzyme activation was determined in a cell-free format with a 12-point concentration curve. The ADP-Glo detection system was used to determine phosphorylation of a SAMS peptide substrate. Recombinant AMPK α1/β1/γ1 complex was pre-activated by phosphorylation with CAMKK2 followed by incubated with compound for 15 minutes prior to the SAMS phosphorylation reaction. Activity curves and EC50 values were fitted by interpolation to an ATP:ADP standard curve as indicated by the ADP-Glo manufacturer using Prism software.; type: protein-complex assay
Sequence (P54619 whole entry): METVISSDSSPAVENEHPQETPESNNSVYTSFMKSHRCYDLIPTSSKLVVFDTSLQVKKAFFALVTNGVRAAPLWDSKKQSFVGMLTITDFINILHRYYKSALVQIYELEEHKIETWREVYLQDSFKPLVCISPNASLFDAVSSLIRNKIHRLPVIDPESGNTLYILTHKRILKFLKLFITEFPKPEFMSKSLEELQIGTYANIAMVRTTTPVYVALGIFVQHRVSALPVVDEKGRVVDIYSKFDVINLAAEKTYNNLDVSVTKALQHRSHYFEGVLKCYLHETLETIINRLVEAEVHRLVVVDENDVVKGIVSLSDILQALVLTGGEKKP
Sequence (Q9Y478 whole entry): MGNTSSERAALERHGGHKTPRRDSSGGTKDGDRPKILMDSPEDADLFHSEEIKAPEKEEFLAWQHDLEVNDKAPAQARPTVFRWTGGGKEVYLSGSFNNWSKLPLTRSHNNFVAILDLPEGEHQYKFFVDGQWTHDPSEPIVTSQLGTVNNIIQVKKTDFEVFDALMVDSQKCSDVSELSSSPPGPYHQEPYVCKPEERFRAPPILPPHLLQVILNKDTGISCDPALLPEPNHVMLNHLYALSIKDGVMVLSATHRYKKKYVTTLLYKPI
Sequence (Q13131 whole entry): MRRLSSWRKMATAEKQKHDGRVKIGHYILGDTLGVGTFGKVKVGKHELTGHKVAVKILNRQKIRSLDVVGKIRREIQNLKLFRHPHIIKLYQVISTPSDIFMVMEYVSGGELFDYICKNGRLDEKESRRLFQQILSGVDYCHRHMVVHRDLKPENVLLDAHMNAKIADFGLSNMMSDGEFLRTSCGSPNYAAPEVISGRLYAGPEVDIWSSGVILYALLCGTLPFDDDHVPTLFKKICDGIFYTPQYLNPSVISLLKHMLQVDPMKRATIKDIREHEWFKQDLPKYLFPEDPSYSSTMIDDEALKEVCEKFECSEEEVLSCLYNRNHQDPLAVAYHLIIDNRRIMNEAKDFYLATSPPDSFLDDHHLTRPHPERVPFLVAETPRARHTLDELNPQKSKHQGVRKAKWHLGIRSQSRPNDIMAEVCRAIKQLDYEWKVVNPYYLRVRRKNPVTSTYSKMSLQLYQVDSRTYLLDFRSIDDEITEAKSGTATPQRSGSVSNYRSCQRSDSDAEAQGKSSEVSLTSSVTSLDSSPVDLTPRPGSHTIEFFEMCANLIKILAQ
Exercise: state measured pEC50 for each of the compounds provided.
Numbers only, as −log10 of the molar value.

Some entries whose results are on file:
| SUBSTANCE_SMILES | pEC50 |
| --- | --- |
| OCC(CO)NCc1ccc(-c2ccc(-c3cc4nc(O[C@@H]5CO[C@H]6[C@@H]5OC[C@H]6O)[nH]c4cc3Cl)cc2)cc1 | 8.97 |
| O=C(NCC[N+]12CCN(CC1)CC2)c1ccc(-c2ccc(-c3cc4nc(O[C@@H]5CO[C@H]6[C@@H]5OC[C@H]6O)[nH]c4cc3Cl)cc2)cc1 | 9.12 |
| O=C(NCCC[N+]12CCN(CC1)CC2)c1ccc(-c2ccc(-c3cc4nc(O[C@@H]5CO[C@H]6[C@@H]5OC[C@H]6O)[nH]c4cc3Cl)cc2)cc1 | 9.02 |

Kindly review the next compound as well.
Can you share its pEC50? I mean this compound: `O=S(=O)(NCCOCCO)c1ccc(-c2ccc(-c3cc4nc(O[C@@H]5CO[C@H]6[C@@H]5OC[C@H]6O)[nH]c4cc3Cl)cc2)cc1` 8.82
